# MEASURED ON: factor Xa (Homo sapiens, UniProt P00742)
# Sequence (P00742 235-488 limits assumed): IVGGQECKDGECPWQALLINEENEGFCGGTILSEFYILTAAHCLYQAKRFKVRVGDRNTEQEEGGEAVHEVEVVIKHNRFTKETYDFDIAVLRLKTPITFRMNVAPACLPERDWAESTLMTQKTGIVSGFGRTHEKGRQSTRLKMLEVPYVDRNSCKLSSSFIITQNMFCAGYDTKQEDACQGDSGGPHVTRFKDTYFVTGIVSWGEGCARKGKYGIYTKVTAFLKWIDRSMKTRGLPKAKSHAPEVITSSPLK
# Sequence (P00742 41-179 partner limits assumed): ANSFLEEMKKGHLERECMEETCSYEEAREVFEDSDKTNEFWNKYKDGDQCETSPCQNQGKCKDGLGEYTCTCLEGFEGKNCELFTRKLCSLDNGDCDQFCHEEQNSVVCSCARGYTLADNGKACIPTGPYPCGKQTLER
# ASSAY: In vitro Factor Xa assay (Test 1a), chromogenic substrate S-2765
# Type: biochemical
# Design: purchased Enzyme Research Laboratories, Inc; South Bend, Ind
# CONDITION DESCRIPTION: Factor Xa inhibitory activity; Ki from IC50 corrected for substrate competition; 0.5 nM enzyme, 140 μM S-2765, 25° C.
Structures can show the parent of a compound that is named as a salt.
OUTCOME MEASURE: log10 of Ki (log10 of the value in nM)

>  <COMPOUND>
CN(C)C(=O)C(Cc1ccc(C(=N)N)cc1)C(=O)N[C@H](C(=O)N[C@@H](CCCNC(=N)N)C(=O)N1CCN(S(=O)(=O)c2ccc3ccc(Cl)cc3c2)CC1)C1CCCCC1 (mixture of isomers)

>  <MEASURED ON>
factor Xa (Homo sapiens, UniProt P00742)

>  <OUTCOME MEASURE>
log10 of Ki

>  <NUMERIC RESULT>
1.08

$$$$
>  <COMPOUND>
CC(=O)NCc1cccc(CNC(=O)[C@@H](NC(=O)C(Cc2ccc(C(=N)N)cc2)C(=O)N(C)C)C2CCCCC2)c1 (stereo partly shown) [Example 67, trifluoroacetic acid salt]

>  <MEASURED ON>
factor Xa (Homo sapiens, UniProt P00742)

>  <OUTCOME MEASURE>
log10 of Ki

>  <NUMERIC RESULT>
2.41

$$$$
>  <COMPOUND>
CN(C)C(=O)C(Cc1ccc(C(=N)N)cc1)C(=O)N[C@H](C(=O)NCCCCNC(=N)N)C1CCCCC1 (mixture of isomers)

>  <MEASURED ON>
factor Xa (Homo sapiens, UniProt P00742)

>  <OUTCOME MEASURE>
log10 of Ki

>  <NUMERIC RESULT>
1.73

$$$$
>  <COMPOUND>
CC(C)(C)[C@H](NC(=O)C(Cc1ccc(C(=N)N)cc1)C(=O)N1CCOCC1)C(=O)N[C@@H](CCCNC(=N)N)C(N)=O (mixture of isomers) [Example 40, trifluoroacetic acid salt]

>  <MEASURED ON>
factor Xa (Homo sapiens, UniProt P00742)

>  <OUTCOME MEASURE>
log10 of Ki

>  <NUMERIC RESULT>
2.70

$$$$
>  <COMPOUND>
CCOC(=O)C(Cc1cccc2ccccc12)NC(=O)[C@@H](NC(=O)C(Cc1ccc(C(=N)N)cc1)C(=O)N(C)Cc1ccccc1)C1CCCCC1 (single isomer, unassigned; more polar)

>  <MEASURED ON>
factor Xa (Homo sapiens, UniProt P00742)

>  <OUTCOME MEASURE>
log10 of Ki

>  <NUMERIC RESULT>
3.44

$$$$
>  <COMPOUND>
N=C(N)c1ccc(CNC(=O)[C@@H](NC(=O)C(Cc2ccc(C(=N)N)cc2)C(=O)NCc2ccccc2)C2CCCCC2)cc1 (single isomer, unassigned; less polar)

>  <MEASURED ON>
factor Xa (Homo sapiens, UniProt P00742)

>  <OUTCOME MEASURE>
log10 of Ki

>  <NUMERIC RESULT>
1.57

$$$$
>  <COMPOUND>
N=C(N)NCCCC(NC(=O)C(NC(=O)C(Cc1ccc(C(=N)N)cc1)C(=O)N1CCCCC1)C1CCCCC1)C(N)=O (single isomer, unassigned; less polar) [Example 27]

>  <MEASURED ON>
factor Xa (Homo sapiens, UniProt P00742)

>  <OUTCOME MEASURE>
log10 of Ki

>  <NUMERIC RESULT>
0.54

$$$$
>  <COMPOUND>
CCCC[C@H](NC(=O)C(Cc1ccc(C(=N)N)cc1)C(=O)N1CCOCC1)C(=O)N[C@@H](CCCNC(=N)N)C(N)=O (stereo partly shown) [Example 16, trifluoroacetic acid salt]

>  <MEASURED ON>
factor Xa (Homo sapiens, UniProt P00742)

>  <OUTCOME MEASURE>
log10 of Ki

>  <NUMERIC RESULT>
1.41

$$$$
>  <COMPOUND>
CN(C)C(=O)C(Cc1ccc(C(=N)N)cc1)C(=O)N[C@H](C(=O)NCC1CCC(C(=N)N)CC1)C1CCCCC1 (stereo partly shown)

>  <MEASURED ON>
factor Xa (Homo sapiens, UniProt P00742)

>  <OUTCOME MEASURE>
log10 of Ki

>  <NUMERIC RESULT>
0.30

$$$$
>  <COMPOUND>
CN(C)C(=O)C(Cc1ccc(C(=N)N)cc1)C(=O)N[C@H](C(=O)NC(Cc1ccc(C(=N)N)cc1)C(N)=O)C1CCCCC1 (mixture of isomers) [Example 87, acetic acid salt]

>  <MEASURED ON>
factor Xa (Homo sapiens, UniProt P00742)

>  <OUTCOME MEASURE>
log10 of Ki

>  <NUMERIC RESULT>
2.23

$$$$

====

# MEASURED ON: factor Xa (Homo sapiens)
# ASSAY: In vitro Factor Xa assay (Test 1a), chromogenic substrate S-2765
# Assay type: biochemical
# Parameters: purchased Enzyme Research Laboratories, Inc; South Bend, Ind
# CONDITION DESCRIPTION: Factor Xa inhibitory activity; Ki from IC50 corrected for substrate competition; 0.5 nM enzyme, 140 μM S-2765, 25° C.
Counter-ions that a name gives are not always drawn.
Hi! Just check whether Ki is below 40 nM. Below gives Fulfilled, equal or above gives Not fulfilled.

>  <COMPOUND>
CN(C)C(=O)[C@@H](Cc1ccc(C(=N)N)cc1)C(=O)N[C@H](C(=O)NCC1CCN(C(=N)N)CC1)C1CCCCC1

>  <GROUP>
Fulfilled

$$$$
>  <COMPOUND>
CN(C)C(=O)C(Cc1ccc(C(=N)N)cc1)C(=O)N[C@H](C(=O)NCc1ccc(C(=N)N)cc1)C1CCCCC1 (mixture of isomers)

>  <GROUP>
Fulfilled

$$$$
>  <COMPOUND>
CN(C)C(=O)C(Cc1ccc(C(=N)N)cc1)C(=O)N[C@H](C(=O)NCc1cccc(CN)c1)C1CCCCC1 (stereo partly drawn) [Example 63, trifluoroacetic acid salt]

>  <GROUP>
Not fulfilled

$$$$
>  <COMPOUND>
N=C(N)NCCCC(NC(=O)C(NC(=O)C(Cc1ccc(C(=N)N)cc1)C(=O)N1CCCCC1)C1CCCCC1)C(N)=O (single isomer, unassigned; more polar) [Example 28]

>  <GROUP>
Not fulfilled

$$$$
>  <COMPOUND>
CCC(=N)N1CCC(CNC(=O)C(NC(=O)C(Cc2ccc(C(=N)N)cc2)C(=O)N(C)Cc2ccccc2)C2CCCCC2)CC1 (single isomer, unassigned; less polar) [Example 126]

>  <GROUP>
Fulfilled

$$$$
>  <COMPOUND>
CN(C)C(=O)C(Cc1ccc(C(=N)N)cc1)C(=O)NC(C(=O)NCc1cccc(C(N)=O)c1)C1CCCCC1 (stereo not drawn)

>  <GROUP>
Not fulfilled

$$$$

====

# MEASURED ON: factor Xa (Homo sapiens, UniProt P00742)
# ASSAY: In vitro Factor Xa assay (Test 1a), chromogenic substrate S-2765
# Format: biochemical
# Set-up: purchased Enzyme Research Laboratories, Inc; South Bend, Ind
# CONDITION DESCRIPTION: Factor Xa inhibitory activity; Ki from IC50 corrected for substrate competition; 0.5 nM enzyme, 140 μM S-2765, 25° C.
Structures can show the parent of a compound that is named as a salt.
OUTCOME MEASURE: Ki (nM)

>  <COMPOUND>
CN(C)C(=N)c1ccc(CC(C(=O)NC(C(=O)NCC2CCC(C(=N)N(C)C)CC2)C2CCCCC2)C(=O)N(C)C)cc1 (stereo not drawn) [Example 120]

>  <OUTCOME MEASURE>
Ki

>  <NUMERIC RESULT>
6

$$$$
>  <COMPOUND>
CN(C)C(=O)C(Cc1ccc(C(=N)N)cc1)C(=O)N[C@H](C(=O)NCC1CCNCC1)C1CCCCC1 (mixture of isomers) [Example 47]

>  <OUTCOME MEASURE>
Ki

>  <NUMERIC RESULT>
460

$$$$
>  <COMPOUND>
N=C(N)NCCC[C@H](NC(=O)[C@@H](NC(=O)C(Cc1ccc(C(=N)N)cc1)C(=O)N1CCOCC1)c1ccccc1)C(N)=O (mixture of isomers) [Example 23, trifluoroacetic acid salt]

>  <OUTCOME MEASURE>
Ki

>  <NUMERIC RESULT>
13

$$$$

====

# MEASURED ON: factor Xa (Homo sapiens)
# ASSAY: In vitro Factor Xa assay (Test 1a), chromogenic substrate S-2765
# Assay type: biochemical
# Set-up: purchased Enzyme Research Laboratories, Inc; South Bend, Ind
# CONDITION DESCRIPTION: Factor Xa inhibitory activity; Ki from IC50 corrected for substrate competition; 0.5 nM enzyme, 140 μM S-2765, 25° C.
pKi: −log10 of the molar value. Structures can show the parent of a compound that is named as a salt.
Listing: pKi of selected compounds

>  <COMPOUND>
N=C(N)NCCC[C@H](NC(=O)[C@H](Cc1ccccc1)NC(=O)C(Cc1ccc(C(=N)N)cc1)C(=O)N1CCOCC1)C(N)=O (mixture of isomers) [Example 43]

>  <pKi>
6.72

$$$$
>  <COMPOUND>
CN(Cc1ccccc1)C(=O)[C@@H](Cc1ccc(C(=N)N)cc1)C(=O)N[C@H](C(=O)NCC1CCN(C(=N)N)CC1)C1CCCCC1 (single isomer, unassigned; less polar) [Example 112]

>  <pKi>
9.00

$$$$
>  <COMPOUND>
CN(C)C(=O)C(Cc1ccc(C(=N)N)cc1)C(=O)N[C@H](C(=O)NC(C(=O)N1CCCC1)c1ccc(NC(=N)N)cc1)C1CCCCC1 (mixture of isomers) [Example 96]

>  <pKi>
6.02

$$$$
>  <COMPOUND>
N=C(N)NCCC[C@H](NC(=O)[C@@H](NC(=O)C(Cc1ccc(C(=N)N)cc1)C(=O)N1CCCC1C(=O)O)C1CCCCC1)C(N)=O (single isomer, unassigned; less polar) [Example 35]

>  <pKi>
7.08

$$$$
>  <COMPOUND>
CN(C)C(=O)C(Cc1ccc(C(=N)N)cc1)C(=O)N[C@H](C(=O)NCCc1ccc(Cl)c(Cl)c1)C1CCCCC1 (mixture of isomers) [Example 59, acetic acid salt]

>  <pKi>
5.28

$$$$
>  <COMPOUND>
N=C(N)NCCC[C@H](NC(=O)[C@@H](NC(=O)C(Cc1ccc(C(=N)N)cc1)C(=O)N1CCOCC1)C1CCCCC1)C(N)=O (mixture of isomers) [Example 41, trifluoroacetic acid salt]

>  <pKi>
8.21

$$$$
>  <COMPOUND>
CCC(=N)N1CCC(CNC(=O)C(NC(=O)C(Cc2ccc(C(=N)N)cc2)C(=O)N(C)Cc2ccccc2)C2CCCCC2)CC1 (single isomer, unassigned; more polar) [Example 125]

>  <pKi>
8.22

$$$$
